SYSTEM: T1, CXCR3 receptor (UniProt P49682 1-368, limits assumed)
T1 sequence (looked up): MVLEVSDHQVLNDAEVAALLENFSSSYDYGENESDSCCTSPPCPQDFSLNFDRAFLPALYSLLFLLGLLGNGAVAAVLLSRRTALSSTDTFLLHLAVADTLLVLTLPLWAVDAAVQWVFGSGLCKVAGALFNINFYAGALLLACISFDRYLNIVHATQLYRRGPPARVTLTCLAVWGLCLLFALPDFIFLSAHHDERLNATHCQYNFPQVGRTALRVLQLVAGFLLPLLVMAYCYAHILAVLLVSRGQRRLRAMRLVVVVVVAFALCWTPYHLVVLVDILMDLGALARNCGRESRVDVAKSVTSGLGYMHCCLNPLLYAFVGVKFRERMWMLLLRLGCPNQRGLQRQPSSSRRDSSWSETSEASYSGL
EXPERIMENTAL PROTOCOL: cell-based or functional assay
Non-standard residues stand in square brackets, D forms with d. No end group written: not given here. Aun = NCCCCCCCCCCC(=O)O
Below, each entry is listed alongside its reported calcium mobilization activity of CXCR-3/300-19 cells, dosage 1.2 µM.
No unit in the answer, only the number.

{"columns": ["BINDER", "RECORDED VALUE"],
 "data": [
  ["VPLSRTVRSTSISIS[Aun]ESKAIKNLLEAVSK [[Ser^9,Ser^11,Glu^67]-IP-10-(1-15)-[linker]-IP-10-(58-71)]", 17.4],
  ["Ac-VPLSRTVRATFISISN[Aun]LKAVSKEMSKRSP [Acetylated-[Ala^9,Phe^11]-IP-10-(1-16)-[linker]-IP-10-(66-78)]", 15.2],
  ["VPLSRTPRCTCISIS[Aun]ESKAIKNLLKAVSK (cysteine pairing not given here) [[Pro^7]-IP-10-(1-15)-[linker]-IP-10-(58-71)]", 16]
]}

Request: For the binder shown here, Ac-VPLSRTVRCTCISISN[Aun]LKAVSKEMSKRSP (cysteine pairing not given here) [Acetylated-IP-10-(1-16)-[linker]-IP-10-(66-78)] , give the reported calcium mobilization activity of CXCR-3/300-19 cells, dosage 1.2 µM.
Response: 12.6

Request: Another binder: VPLSRTVRSTSISIS[Aun]ESKAIENLLKAVSK [[Ser^9,Ser^11,Glu^63]-IP-10-(1-15)-[linker]-IP-10-(58-71)]
Response: 18.8
